Recorded values, source paper PMC5540273.

System: ERBB2;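 note: KINOMEscan kinase panel screen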
EXPERIMENTAL PARAMETERS: concentration: 1 μM, replicates: in singlicate; n = 1

COMPOUND	MEASUREMENT UNITS	%Inh
CC(C)NCC(Cc1ccccc1)NC(=O)c1cc(Br)c(-c2ccnc3[nH]ccc23)s1.Cl.Cl (stereo not drawn) [GSK1383281]	%	16
COc1cccc(NC(=O)NCCNc2ccnc(Nc3ccc(F)cc3)n2)c1 [GSK1379879]	%	39
CCn1cnc2c(NCc3ccccc3)ncnc21 [SKF-96418]	%	24
CN(C)c1ncnc2nc[nH]c12 [SKF-31736]	%	24
CN(c1ccc(NC(=O)Nc2cccc(Cl)c2)cc1)c1ccnc(N)n1.Cl [GW830707]	%	0
O=C(O)C(F)(F)F.O=c1[nH]ccc2nc(N[C@@H]3CCNC3)nc(Nc3ccc4c(c3)S(=O)(=O)CC4)c12 [GSK2181306]	%	8
Cc1ccc(NC(=O)c2ccnc(N3CCCCC3)c2)cc1-c1ccc(C(=O)NCC2CC2)cc1 [GW775610]	%	21
Fc1cc(Cl)ccc1Nc1ccnc2cc(-c3ccc(CN4CCSCC4)o3)ccc12 [GW560106]	%	44
CN(C)CCOc1ccc(-c2cc(-c3ccc(Cl)c(O)c3)c(-c3ccncc3)[nH]2)cc1.Cl.Cl [SB-684387]	%	32
